Where do these numbers come from? They come from paper PMC10167348.

biological target: TRPM7 WT (Mus musculus, UniProt Q923J1); construct: expressed in transfected cells; host or cells: HEK 293T; test: Aequorin-based Ca2+ influx assay, inhibition of TRPM7-mediated Ca2+ influx; format: cell-based; conditions: antagonist, mean ± SEM
Sequence (Q923J1 whole entry): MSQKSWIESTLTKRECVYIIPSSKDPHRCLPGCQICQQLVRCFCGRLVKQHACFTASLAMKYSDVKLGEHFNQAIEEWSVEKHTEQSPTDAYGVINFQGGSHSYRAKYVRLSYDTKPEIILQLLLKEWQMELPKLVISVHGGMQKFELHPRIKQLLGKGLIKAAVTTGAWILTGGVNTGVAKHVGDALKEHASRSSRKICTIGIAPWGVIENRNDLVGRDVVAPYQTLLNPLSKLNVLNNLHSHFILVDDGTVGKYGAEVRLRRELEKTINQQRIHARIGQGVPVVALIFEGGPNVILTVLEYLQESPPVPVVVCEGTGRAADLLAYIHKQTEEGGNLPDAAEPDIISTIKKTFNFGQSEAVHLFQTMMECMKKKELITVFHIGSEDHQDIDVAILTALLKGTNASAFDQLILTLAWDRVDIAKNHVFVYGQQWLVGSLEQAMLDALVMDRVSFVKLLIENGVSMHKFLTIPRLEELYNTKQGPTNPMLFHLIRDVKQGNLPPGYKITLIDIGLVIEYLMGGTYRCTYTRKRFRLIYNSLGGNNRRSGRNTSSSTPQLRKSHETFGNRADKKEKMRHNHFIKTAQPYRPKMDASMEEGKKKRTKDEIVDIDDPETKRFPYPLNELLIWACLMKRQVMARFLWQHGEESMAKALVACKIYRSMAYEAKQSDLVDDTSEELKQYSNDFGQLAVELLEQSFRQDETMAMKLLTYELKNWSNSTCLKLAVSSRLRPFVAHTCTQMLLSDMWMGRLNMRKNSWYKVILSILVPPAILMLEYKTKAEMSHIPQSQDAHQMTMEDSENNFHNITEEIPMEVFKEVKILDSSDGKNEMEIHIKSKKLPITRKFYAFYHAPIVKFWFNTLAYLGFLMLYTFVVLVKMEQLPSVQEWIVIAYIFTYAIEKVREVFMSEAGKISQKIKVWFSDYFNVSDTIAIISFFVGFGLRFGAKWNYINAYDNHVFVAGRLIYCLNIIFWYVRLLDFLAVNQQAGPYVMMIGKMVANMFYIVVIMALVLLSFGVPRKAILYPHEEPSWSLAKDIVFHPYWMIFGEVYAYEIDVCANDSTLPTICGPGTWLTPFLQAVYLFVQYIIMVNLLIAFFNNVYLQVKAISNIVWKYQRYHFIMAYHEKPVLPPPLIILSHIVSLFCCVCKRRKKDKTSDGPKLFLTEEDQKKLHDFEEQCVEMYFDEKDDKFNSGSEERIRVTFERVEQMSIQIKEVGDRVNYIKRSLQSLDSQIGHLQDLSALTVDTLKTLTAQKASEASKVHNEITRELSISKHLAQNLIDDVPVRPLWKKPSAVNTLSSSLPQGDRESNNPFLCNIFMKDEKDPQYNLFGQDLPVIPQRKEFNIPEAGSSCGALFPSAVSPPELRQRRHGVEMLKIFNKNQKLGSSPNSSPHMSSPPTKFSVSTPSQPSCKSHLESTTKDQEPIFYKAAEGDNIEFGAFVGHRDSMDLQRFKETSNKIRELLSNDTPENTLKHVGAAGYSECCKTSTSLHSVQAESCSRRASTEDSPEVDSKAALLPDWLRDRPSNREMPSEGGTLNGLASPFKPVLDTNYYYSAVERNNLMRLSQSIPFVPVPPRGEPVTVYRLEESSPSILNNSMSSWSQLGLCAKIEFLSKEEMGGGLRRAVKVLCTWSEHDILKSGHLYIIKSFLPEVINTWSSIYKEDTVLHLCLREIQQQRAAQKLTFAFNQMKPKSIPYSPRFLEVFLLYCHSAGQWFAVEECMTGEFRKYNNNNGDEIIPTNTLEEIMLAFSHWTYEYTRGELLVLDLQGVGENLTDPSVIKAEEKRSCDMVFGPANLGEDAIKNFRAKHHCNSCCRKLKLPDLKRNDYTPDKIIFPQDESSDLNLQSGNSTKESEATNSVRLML
pIC50: −log10 of the molar value.
The molecules listed here are annotated with their pIC50.
REPORTED PROPERTY: pIC50

>>> test_result("N#Cc1ccc(COC[C@H]2O[C@@H](n3c(NCc4ccc(Cl)c(Cl)c4)nc4c(N)ncnc43)[C@H](O)[C@@H]2O)cc1")
6.64
>>> test_result("c1ccc2c(c1)CCC[C@H]2Nc1nc2ccccc2[nH]1")
6.04

* * *

molecular target: TRPM7-M741A (Mus musculus, UniProt Q923J1, M741A); assay: Aequorin-based Ca2+ influx assay, activation by naltriben
Sequence (Q923J1 whole entry M741A): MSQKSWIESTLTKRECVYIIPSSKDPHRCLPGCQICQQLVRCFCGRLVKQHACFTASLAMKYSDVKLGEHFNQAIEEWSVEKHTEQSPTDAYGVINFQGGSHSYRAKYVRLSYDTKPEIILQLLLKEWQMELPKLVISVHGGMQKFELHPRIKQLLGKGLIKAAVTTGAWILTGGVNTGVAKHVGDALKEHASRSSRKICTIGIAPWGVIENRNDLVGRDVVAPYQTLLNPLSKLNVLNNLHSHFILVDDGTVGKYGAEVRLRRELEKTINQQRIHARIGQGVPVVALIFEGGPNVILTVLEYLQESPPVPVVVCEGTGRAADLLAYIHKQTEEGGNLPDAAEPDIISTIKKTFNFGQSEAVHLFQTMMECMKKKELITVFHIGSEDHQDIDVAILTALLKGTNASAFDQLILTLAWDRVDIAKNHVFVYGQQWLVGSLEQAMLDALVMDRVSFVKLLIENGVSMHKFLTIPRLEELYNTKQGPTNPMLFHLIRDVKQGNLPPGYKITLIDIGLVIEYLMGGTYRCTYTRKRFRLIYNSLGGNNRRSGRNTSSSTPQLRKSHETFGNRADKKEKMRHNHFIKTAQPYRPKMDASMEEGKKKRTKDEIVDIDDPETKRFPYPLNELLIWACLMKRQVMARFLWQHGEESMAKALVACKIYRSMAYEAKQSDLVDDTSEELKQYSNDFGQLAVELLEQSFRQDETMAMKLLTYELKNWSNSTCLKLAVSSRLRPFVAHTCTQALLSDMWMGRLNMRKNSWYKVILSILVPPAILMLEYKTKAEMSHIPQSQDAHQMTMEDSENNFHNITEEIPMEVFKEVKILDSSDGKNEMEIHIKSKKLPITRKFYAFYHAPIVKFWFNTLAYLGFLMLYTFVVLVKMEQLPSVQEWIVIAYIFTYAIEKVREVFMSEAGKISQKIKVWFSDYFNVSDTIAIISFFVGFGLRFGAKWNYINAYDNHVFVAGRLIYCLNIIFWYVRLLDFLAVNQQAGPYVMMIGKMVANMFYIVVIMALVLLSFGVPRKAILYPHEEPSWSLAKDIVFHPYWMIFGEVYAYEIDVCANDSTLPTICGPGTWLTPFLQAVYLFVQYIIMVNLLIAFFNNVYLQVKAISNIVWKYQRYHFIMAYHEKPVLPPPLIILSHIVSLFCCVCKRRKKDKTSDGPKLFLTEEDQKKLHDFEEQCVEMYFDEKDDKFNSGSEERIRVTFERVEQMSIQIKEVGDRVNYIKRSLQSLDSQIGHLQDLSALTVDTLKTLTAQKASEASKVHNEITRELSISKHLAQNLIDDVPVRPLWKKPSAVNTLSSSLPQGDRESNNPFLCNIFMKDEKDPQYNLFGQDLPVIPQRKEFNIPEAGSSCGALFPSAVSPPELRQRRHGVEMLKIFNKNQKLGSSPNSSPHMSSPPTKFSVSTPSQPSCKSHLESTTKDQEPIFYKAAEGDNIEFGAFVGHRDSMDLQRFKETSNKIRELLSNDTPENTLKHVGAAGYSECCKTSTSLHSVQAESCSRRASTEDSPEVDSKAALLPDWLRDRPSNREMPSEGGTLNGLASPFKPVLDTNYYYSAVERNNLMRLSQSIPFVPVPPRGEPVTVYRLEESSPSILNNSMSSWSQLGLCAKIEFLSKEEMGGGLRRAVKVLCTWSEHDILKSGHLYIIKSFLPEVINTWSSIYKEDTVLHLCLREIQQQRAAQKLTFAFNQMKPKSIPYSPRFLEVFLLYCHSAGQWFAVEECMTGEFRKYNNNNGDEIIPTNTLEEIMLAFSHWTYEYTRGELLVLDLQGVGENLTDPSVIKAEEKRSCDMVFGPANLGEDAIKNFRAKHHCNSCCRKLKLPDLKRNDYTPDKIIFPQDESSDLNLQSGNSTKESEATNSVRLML
REPORTED PROPERTY: EC50

>>> test_result("Oc1ccc2c3c1O[C@H]1c4oc5ccccc5c4C[C@@]4(O)[C@@H](C2)N(CC2CC2)CC[C@]314")
"85 µM"

* * *

target: TRPM7-L671A (Mus musculus, UniProt Q923J1, L671A); experiment: Aequorin-based Ca2+ influx assay, activation by naltriben
pEC50: −log10 of the molar value.
REPORTED PROPERTY: pEC50

>>> test_result("Oc1ccc2c3c1O[C@H]1c4oc5ccccc5c4C[C@@]4(O)[C@@H](C2)N(CC2CC2)CC[C@]314 [Naltriben, naltriben]")
3.84

* * *

target: TRPM7-A981V (Mus musculus, UniProt Q923J1, A981V); construct: expressed in transfected cells; host or cells: HEK 293T; test: Aequorin-based Ca2+ influx assay, inhibition of TRPM7-mediated Ca2+ influx; assay type: cell-based; details: antagonist, mean ± SEM, read-out: IC50
Sequence (Q923J1 whole entry A981V): as the sequence (Q923J1 whole entry) above, with A981V counted along it
pIC50: −log10 of the molar value.
REPORTED PROPERTY: pIC50

>>> test_result("c1ccc2c(c1)CCC[C@H]2Nc1nc2ccccc2[nH]1")
4.66

* * *

target: TRPM7-N752K (Mus musculus, UniProt Q923J1, N752K); experiment: Aequorin-based Ca2+ influx assay, activation by naltriben
Sequence (Q923J1 whole entry N752K): as the sequence (Q923J1 whole entry) above, with N752K counted along it
pEC50: −log10 of the molar value.
REPORTED PROPERTY: pEC50

>>> test_result("Oc1ccc2c3c1O[C@H]1c4oc5ccccc5c4C[C@@]4(O)[C@@H](C2)N(CC2CC2)CC[C@]314")
3.72

* * *

molecular target: TRPM7-L671A/N752K (Mus musculus, UniProt Q923J1, L671A/N752K); construct: expressed in transfected cells; host or cells: HEK 293T; test: Aequorin-based Ca2+ influx assay, activation by naltriben; type: cell-based
Sequence (Q923J1 whole entry L671A/N752K): as the sequence (Q923J1 whole entry) above, with L671A, N752K counted along it
REPORTED PROPERTY: EC50

>>> test_result("Oc1ccc2c3c1O[C@H]1c4oc5ccccc5c4C[C@@]4(O)[C@@H](C2)N(CC2CC2)CC[C@]314 [Naltriben, naltriben]")
"230 µM"

* * *

target: TRPM7-D670A (Mus musculus, UniProt Q923J1, D670A); assay: Aequorin-based Ca2+ influx assay, activation by naltriben
Sequence (Q923J1 whole entry D670A): as the sequence (Q923J1 whole entry M741A) above, with D670A, A741M counted along it
REPORTED PROPERTY: EC50 (µM)

>>> test_result("Oc1ccc2c3c1O[C@H]1c4oc5ccccc5c4C[C@@]4(O)[C@@H](C2)N(CC2CC2)CC[C@]314")
117

* * *

Target: TRPM7-M991A (Mus musculus, UniProt Q923J1, M991A)
Construct: expressed in transfected cells; host or cells: HEK 293T
Sequence (Q923J1 whole entry M991A): as the sequence (Q923J1 whole entry) above, with M991A counted along it
Assay: Aequorin-based Ca2+ influx assay, inhibition of TRPM7-mediated Ca2+ influx
Type: cell-based
Conditions: M991A, antagonist, no added second inhibitor, mean ± SEM; read-out: IC50
Protocol: Measurements of [Ca^2+]i were performed as reported previously with several modifications[2],[52],[54]. […] Luminescence was detected at room temperature using a FLUOstar OPTIMA microplate reader (BMG LABTECH GmbH). […] The bioluminescence rates (counts/s) were analyzed at 1-s intervals and calibrated as [Ca^2+]i values using the following equation:1 p[Ca^2+]i=0.332588(−log(k))+5.5593 where k represents the rate of aequorin consumption, i.e., counts/s divided by the total number of counts. […]
REPORTED PROPERTY: IC50 (nM)

>>> test_result("c1ccc2c(c1)CCC[C@H]2Nc1nc2ccccc2[nH]1")
590

* * *

target: TRPM7-W1111A (Mus musculus, UniProt Q923J1, W1111A); construct: expressed in transfected cells; host or cells: HEK 293T; assay: Aequorin-based Ca2+ influx assay, inhibition of TRPM7-mediated Ca2+ influx; type: cell-based; details: antagonist, mean ± SEM
Sequence (Q923J1 whole entry W1111A): as the sequence (Q923J1 whole entry M741A) above, with A741M, W1111A counted along it
REPORTED PROPERTY: IC50 (µM)

>>> test_result("c1ccc2c(c1)CCC[C@H]2Nc1nc2ccccc2[nH]1")
5.14

* * *

Target: TRPM7-A981L (Mus musculus, UniProt Q923J1, A981L)
Sequence (Q923J1 whole entry A981L): as the sequence (Q923J1 whole entry) above, with A981L counted along it
Experiment: Aequorin-based Ca2+ influx assay, inhibition of TRPM7-mediated Ca2+ influx
Settings: antagonist, mean ± SEM
Method: Measurements of [Ca^2+]i were performed as reported previously with several modifications[2],[52],[54]. […] Luminescence was detected at room temperature using a FLUOstar OPTIMA microplate reader (BMG LABTECH GmbH). […] The bioluminescence rates (counts/s) were analyzed at 1-s intervals and calibrated as [Ca^2+]i values using the following equation:1 p[Ca^2+]i=0.332588(−log(k))+5.5593 where k represents the rate of aequorin consumption, i.e., counts/s divided by the total number of counts. […]
pIC50: −log10 of the molar value.
REPORTED PROPERTY: pIC50

>>> test_result("c1ccc2c(c1)CCC[C@H]2Nc1nc2ccccc2[nH]1")
4.94

* * *

target: TRPM7-N1098Q (Mus musculus, UniProt Q923J1, N1098Q); assay: Aequorin-based Ca2+ influx assay, inhibition of TRPM7-mediated Ca2+ influx; details: N1098Q, antagonist, mean ± SEM
Sequence (Q923J1 whole entry N1098Q): as the sequence (Q923J1 whole entry) above, with N1098Q counted along it
Quick reference for IC50 among some molecules
REPORTED PROPERTY: IC50 (µM)

>>> test_result("c1ccc2c(c1)CCC[C@H]2Nc1nc2ccccc2[nH]1")
20.5
>>> test_result("N#Cc1ccc(COC[C@H]2O[C@@H](n3c(NCc4ccc(Cl)c(Cl)c4)nc4c(N)ncnc43)[C@H](O)[C@@H]2O)cc1")
1.71
